Value type: Ki

Ask | Provide the reported Ki (system: ZAP-70 (Homo sapiens)) for Cc1cnc(-c2ccnc(Nc3cccc(CO)c3)n2)s1 [Example I-111]
Reply | ≤ 5 µM

Ask | Lab note: record Ki of Cc1cc(C)cc(Nc2nccc(-c3nc(C)c(C)s3)n2)c1 [Example I-70] tested on ZAP-70 (Homo sapiens).
Reply | ≤ 5 µM

Ask | // fetch Ki; item: COc1ccc(Nc2nccc(-c3ncc(C)s3)n2)cc1F [Example I-5] ; system: ZAP-70 (Homo sapiens)
Reply | ≤ 5 µM

Ask | State, for ZAP-70 (Homo sapiens), measured Ki of the compound listed here: COCc1cc(N)cc(Nc2nccc(-c3ncc(C)s3)n2)c1 [Example I-156]
Reply | ≤ 5 µM

Ask | Write Ki of COc1ccc(Nc2nccc(-c3ncc(C)s3)n2)cc1OC [Example I-2] ; system used: ZAP-70 (Homo sapiens)
Reply | ≤ 5 µM

Ask | Provide ZAP-70 (Homo sapiens) Ki reading for Cc1cc(C)cc(Nc2nccc(-c3nc(C)c(CCO)s3)n2)c1 [Example I-123] .
Reply | ≤ 5 µM

Ask | Write down the reported Ki (system: ZAP-70 (Homo sapiens)) of Cc1cc(C)cc(Nc2nccc(-c3ncc(CN4CCC[C@H]4CO)s3)n2)c1 [Example I-86]
Reply | ≤ 5 µM

Ask | State recorded Ki with ZAP-70 (Homo sapiens), entry CCn1c2ccccc2c2cc(Nc3nccc(-c4ncc(C)s4)n3)ccc21 [Example I-26] , no comment.
Reply | ≤ 5 µM

Ask | Consider the compound Cc1cnc(-c2ccnc(Nc3cc(Cl)cc(Cl)c3)n2)s1 [Example I-51] tested on ZAP-70 (Homo sapiens); state its Ki.
Reply | ≤ 5 µM

###

Task for the reader: assign each of the following compounds its reported Ki.
Test target: UniProt:P43405
Assay method text: SYK inhibition assay (standard coupled enzyme assay)
Format: biochemical
Measurement conditions: coupled enzyme assay, 200 μM ATP, 4 μM poly Gly-Tyr peptide, 30° C.; read-out: Ki (SYK)

Ask | Hello, please tell me recorded Ki for this one: Cc1cnc(-c2ccnc(Nc3ccc4cn[nH]c4c3)n2)s1 [Example I-9]
Reply | ≤ 5 µM

Ask | Entry CNC(=O)c1cnc(-c2ccnc(Nc3cc(C)cc(C)c3)n2)s1 [Example I-115] needs its Ki filled in; supply it.
Reply | ≤ 5 µM

Ask | State its Ki: Cc1cc(C)cc(Nc2nccc(-c3ncc(C(=O)N4CCNCC4)s3)n2)c1 [Example I-134]
Reply | ≤ 5 µM

Ask | Look up Ki of CC(=O)Nc1cccc(Nc2nccc(-c3ncc(C)s3)n2)c1 [Example I-78] and report it.
Reply | ≤ 5 µM

Ask | Annotate the compound Cc1cnc(-c2ccnc(Nc3ccccc3)n2)s1 [Example I-49] with its measured Ki.
Reply | ≤ 5 µM

Ask | Fill in reported Ki for this entry: Cc1cnc(-c2ccnc(Nc3cc(N)cc(C(F)(F)F)c3)n2)s1 [Example I-89]
Reply | ≤ 5 µM

Ask | Determine from records and report Ki for COc1ccc(Nc2nccc(-c3ncc(C)s3)n2)cc1OC [Example I-2]
Reply | ≤ 5 µM

Ask | Retrieve Ki measured for CC(=O)c1ccc(Nc2nccc(-c3ncc(C)s3)n2)cc1 [Example I-116] and print it.
Reply | ≤ 5 µM

Ask | Tell me its Ki given Cc1cc(C)cc(Nc2nccc(-c3nc(C)c(CCOC4CCCCO4)s3)n2)c1 (stereo not drawn) [Example I-119] as the entry.
Reply | ≤ 5 µM
